Where do these numbers come from? They come from the supplement of paper PMC7411054.

- Test system: HepG2-CANX-COX4
- measurementDescription: lowest phenotypically active concentration; higher = less potent
- assaySetup: treatment time: 24 h
Where a name gives a salt, the structure may show the parent alone.
Catalogue of compounds with associated lowest phenotypically active concentration
Numbers only here, please. The scale is µM.

See these solved cases before continuing.
{"compound": "COc1cc(OC)c2cc(-c3ccncc3)cnc2c1 [DMPQ dihydrochloride]", "reportedResult": 9}
{"compound": "COc1cc(Br)c(Nc2nc(-c3c(C)nc4ncccn34)cs2)c(Br)c1", "reportedResult": 1}
{"compound": "O=C(Nc1ccccc1)N1CCN(c2nc(-c3ccccc3)ns2)CC1", "reportedResult": 9}

What measured lowest phenotypically active concentration goes with N=C(N)c1ccc(OCCCCCOc2ccc(C(=N)N)cc2)cc1 [pentamidine] ?
9

Please give the measured lowest phenotypically active concentration for this compound: CNc1nc(-c2ccc3c(N)n[nH]c3c2)cc(N2C[C@@H](C(=O)NC3CCCCC3)CC[C@H]2C)n1
3

# input compound: CCOC(=O)N1CCC(=C2c3ccc(Cl)cc3CCc3cccnc32)CC1 [loratadine] ; wanted: its lowest phenotypically active concentration
3

###

Documented lowest phenotypically active concentration across a set of compounds
- Tested on: HepG2-ACTB-RAB5A
- measurementDescription: lowest phenotypically active concentration; higher = less potent
- assaySetup: treatment time: 24 h
Counter-ions that a name gives are not always drawn.
Output spec: scalar in µM, unitless text.

# query: lowest phenotypically active concentration of entry N#C/C(=C/c1ccc(O)c(O)c1)C(=O)NCCCCc1ccccc1
9

Quick one: lowest phenotypically active concentration of C[C@]1(O)C[C@@H](c2nc(-c3ccc4ccc(-c5ccccc5)nc4c3)c3c(N)nccn32)C1 [linsitinib] ?
9

Requested read-out: lowest phenotypically active concentration. Entry: CCCC1(CCC)CCC2(CCN(CCCN(CC)CC)C2)CC1 [Atiprimod dihydrochloride]
1

Please report the recorded lowest phenotypically active concentration for CCCCOc1c(C(=O)c2c(F)cc(C)cc2F)cnc2[nH]ncc12 .
3

Item O=c1cc(N2CCOCC2)oc2c(-c3ccccc3)cccc12 has what recorded lowest phenotypically active concentration?
9

// lowest phenotypically active concentration lookup, key: CC(C)CCN1c2nc(Nc3cc(F)c(O)c(F)c3)ncc2N(C)C(=O)C1C (stereo not given)
3

Could you share which lowest phenotypically active concentration value was measured for Cc1nc(NC(=O)N2CCC[C@H]2C(N)=O)sc1-c1ccnc(C(C)(C)C(F)(F)F)c1 [alpelisib] ?
1

###

- Tested on: A549-CANX-COX4
- measurementDescription: phenotypically active (imaging signature differs from DMSO and reproducible) at any of 0.3-9 uM (binary (1 = active, 0 = inactive)); higher = active
- assaySetup: treatment time: 24 h
Structures can show the parent of a compound that is named as a salt.
The reply should be one of these categories: t for active, f for inactive

Record excerpt, results attached:
{"compound": "C[C@@H](Nc1ncnc2[nH]c(-c3ccc(O)cc3)cc12)c1ccccc1 [PKI 166 hydrochloride]", "assignedLabel": "t"}
{"compound": "C=C[C@H]1CN2CC[C@H]1C[C@@H]2[C@@H](O)c1ccnc2ccc(OC)cc12 [Quinidine hydrochloride monohydrate]", "assignedLabel": "f"}
{"compound": "COc1ccc(C[C@H](N)C(=O)N[C@H]2[C@@H](O)[C@H](n3cnc4c(N(C)C)ncnc43)O[C@@H]2CO)cc1 [Puromycin dihydrochloride]", "assignedLabel": "t"}

For CCCCCCCCCCNCCSSCc1ccc(Cl)cc1 , which call appears in the assay record?
t

Look up the recorded call for CCc1cc2c(=O)c(-c3nc4ccccc4s3)coc2c(CN2CCCCC2)c1O in this test.
f

Could you kindly confirm the outcome this assay logged for CCCCOc1c(C(=O)c2c(F)cc(C)cc2F)cnc2[nH]ncc12 ?
t

Per the assay record, what outcome was assigned to CS(=O)(=O)c1ccc(-c2nnc(/C=C/c3nnc(-c4ccc(C#N)cc4)o3)n2-c2ccccc2Cl)nc1 ?
f

So what was the verdict on Nc1ncnc2c1ncn2[C@@H]1O[C@H](CO)[C@@H](O)[C@H]1O [Adenosine] in this test?
f

###

- Test system: HepG2-CANX-COX4
- measurementDescription: phenotypically active (imaging signature differs from DMSO and reproducible) at any of 0.3-9 uM (binary (1 = active, 0 = inactive)); higher = active
- assaySetup: treatment time: 24 h
The categories you may choose from are YES for active, NO for inactive

Answered examples (4):
{"compound": "CC(CN(C)C)CN1c2ccccc2Sc2ccccc21.CC(CN(C)C)CN1c2ccccc2Sc2ccccc21 (stereo not given)", "assayedSystem": "HepG2-CANX-COX4", "assignedLabel": "NO"}
{"compound": "Nc1ccc(O)c(C(=O)O)c1", "assayedSystem": "HepG2-CANX-COX4", "assignedLabel": "NO"}
{"compound": "CNC(=O)Nc1ccc(-c2nc(N3CC4CCC(C3)O4)c3cnn(C4CCC5(CC4)OCCO5)c3n2)cc1", "assayedSystem": "HepG2-CANX-COX4", "assignedLabel": "YES"}
{"compound": "Cc1noc(C)c1-c1ccc2c(c1)nc(CCc1ccc(OCCCN(C)C)cc1)n2CCN1CCOCC1", "assayedSystem": "HepG2-CANX-COX4", "assignedLabel": "YES"}

Tell me the assay call for Cc1ccc(C(=O)N(CCCN)[C@@H](c2oc3cc(Cl)ccc3c(=O)c2Cc2ccccc2)C(C)C)cc1 please.
YES

###

- Test system: WPMY1-CANX-COX4
- measurementDescription: phenotypically active (imaging signature differs from DMSO and reproducible) at any of 0.3-9 uM (binary (1 = active, 0 = inactive)); higher = active
- assaySetup: treatment time: 24 h
Where a name gives a salt, the structure may show the parent alone.
In this exercise, the only acceptable responses are true (1) for active, false (0) for inactive

Completed entries (count: 3):
{"molecule": "NS(=O)(=O)c1cc2c(cc1Cl)NC(C(Cl)Cl)NS2(=O)=O (stereo not given) [trichlormethiazide]", "assignedLabel": "false (0)"}
{"molecule": "CC(=O)Nc1nnc(S(N)(=O)=O)s1 [acetazolamide]", "assignedLabel": "false (0)"}
{"molecule": "O=C(O)C[C@H](O)C[C@H](O)/C=C/c1c(C2CC2)nc2ccccc2c1-c1ccc(F)cc1", "assignedLabel": "true (1)"}

Any idea what this test logged for O=C1NC(=O)/C(=C\c2cccc(C(F)(F)F)c2)S1 ?
false (0)

Field: outcome | Entry: CCCCCCCCCCCCc1ccc(S(=O)(=O)Nc2nncs2)cc1
false (0)

# outcome recorded in this test, key = C=C[C@H]1CN2CC[C@H]1C[C@H]2[C@H](O)c1ccnc2ccc(OC)cc12 [Quinine dihydrochloride]
false (0)

Each molecule tested received a call. Report the one for O=C1CCc2cc(OCCCCc3nnnn3C3CCCCC3)ccc2N1 .
false (0)

Could you check what this test reported for C/C(=N/NC(=N)N)c1ccc(NC(=O)Nc2ccc(/C(C)=N/NC(=N)N)cc2)cc1 ?
true (1)

So what was the verdict on Nc1ccc(-c2ccc3ncc4ccc(=O)n(-c5cccc(C(F)(F)F)c5)c4c3c2)cn1 in this test?
true (1)

Test call for this molecule, please: O=S(=O)(c1ccccc1)N(CC(F)(F)F)c1ccc(C(O)(C(F)(F)F)C(F)(F)F)cc1
false (0)

Hi, sorry to bother you, what did the test record for CCOC(=O)C1=C[C@]2(CC)CCCN3CCc4c(n1c1ccccc41)[C@@H]32 ?
false (0)

Kindly provide the recorded test outcome for the following molecule: CC1(C)CCC(c2ccc(Cl)cc2)=C(CN2CCN(c3ccc(C(=O)NS(=O)(=O)c4ccc(N[C@H](CCN5CCOCC5)CSc5ccccc5)c(S(=O)(=O)C(F)(F)F)c4)cc3)CC2)C1
false (0)

I would be grateful if you could indicate the recorded call for COc1cc(C(=O)NC2CCN(C)CC2)c(F)cc1Nc1ncc2c(n1)N(C1CCCC1)CC(F)(F)C(=O)N2C [TAK 960 hydrochloride] .
true (1)

###

- Tested on: HepG2-GM130-SQSTM1
- measurementDescription: phenotypically active (imaging signature differs from DMSO and reproducible) at any of 0.3-9 uM (binary (1 = active, 0 = inactive)); higher = active
- assaySetup: treatment time: 24 h
Structures can show the parent of a compound that is named as a salt.
In this section we review reported phenotypically active values for a set of compounds.
// return just the number, without any unit appended

Worked cases, phenotypically active given:
{"compound": "CN1C(CSCC(F)(F)F)Nc2cc(Cl)c(S(N)(=O)=O)cc2S1(=O)=O (stereo unspecified) [polythiazide]", "phenotypically active": 0}
{"compound": "COc1cc(OC)c2cc(-c3ccncc3)cnc2c1 [DMPQ dihydrochloride]", "phenotypically active": 0}
{"compound": "CN1CCC(=C2c3ccccc3CC(=O)c3sccc32)CC1 [ketotifen]", "phenotypically active": 1}
{"compound": "C=CC(=O)Nc1cccc(Nc2nc(Nc3ccc(OCCOC)cc3)ncc2F)c1", "phenotypically active": 1}
{"compound": "CC1=CC(=O)C2=C(C)CC[C@@H]3[C@H](OC(=O)[C@H]3C)[C@@H]12 [Leucomisine]", "phenotypically active": 0}
{"compound": "Cc1nc(NC(=O)N2CCC[C@H]2C(N)=O)sc1-c1csc(C(C)(C)C)n1", "phenotypically active": 1}

// phenotypically active lookup, key: CN(C)CCCN1c2ccccc2Sc2ccc(Cl)cc21 [chlorpromazine]
1

Which phenotypically active value belongs to O=c1c(O)c(-c2ccc(O)cc2)oc2cc(O)cc(O)c12 [Kaempferol] ?
0

GET /values?readout=phenotypically active&item= CC(C)(C)NS(=O)(=O)c1cncc(-c2cc(F)c3nc(N)nn3c2)c1
0

Param item = CCCCC1=NC2(CCCC2)C(=O)N1Cc1ccc(-c2ccccc2-c2nnn[nH]2)cc1 [irbesartan] ; retrieve measured phenotypically active.
0

Fill in: phenotypically active of CC(=O)/N=c1/sc(S(N)(=O)=O)nn1C [methazolamide] is ___
0

// phenotypically active lookup, key: CC[C@H](C)[C@H](NC(=O)OCc1ccccc1)C(=O)N[C@@H](CCC(=O)OC(C)(C)C)C(=O)N[C@@H](C)C(=O)N[C@H](C=O)CC(C)C
1

Please give the measured phenotypically active for this compound: NS(=O)(=O)c1cc(Cl)c(Cl)c(S(N)(=O)=O)c1 [diclofenamide]
0

I'd like to know its phenotypically active. The compound in question is CC(=O)N[C@@H]1[C@@H](O[C@H](C)C(=O)O)[C@H](O)[C@@H](CO)O[C@@H]1O [Muramic acid, N-acetyl]
0

I would be grateful if you could share the reported phenotypically active for Cc1cnc(NC(=O)C2=C(O)c3ccccc3S(=O)(=O)N2C)s1 [meloxicam] .
0

I'd like to know its phenotypically active. The compound in question is CCN(Cc1ccncc1)C(=O)C(CO)c1ccccc1 (stereo unspecified) [tropicamide]
0

Quick one: phenotypically active of NC(=O)c1cccc(-c2cc(Nc3ccc(OC(F)(F)F)cc3)ncn2)c1 ?
1
